test system: HCT116; experiment: efficacy (fitted maximal change in viability relative to DMSO control); higher = less cytotoxic (negative = loss of viability); details: 48 h
Binary call on efficacy: YES from -80% upward, NO beneath that.

compound	label_class
Cc1nnc(N[S+](=O)([O-])c2ccc(N)cc2)s1	YES
COc1ccc2[nH]c([S+]([O-])Cc3ncc(C)c(OC)c3C)nc2c1 (configuration not stated)	YES
C[C@@H](OC[C@@]1(c2ccccc2)CC[C@]2(CCC(=O)N2)CN1)c1cc(C(F)(F)F)cc(C(F)(F)F)c1	NO
COC(C)(C)CCn1nc(Nc2c(C)cccc2C)c2cnc(Nc3ccc(OCCN4CCCC4)c(F)c3)nc21	NO
NC(=O)c1nc(F)cnc1O	YES
CCCc1cc(C(=O)N[C@H](Cc2ccc(-c3cccc(OC(F)(F)F)c3)nc2)C(=O)N[C@@H]2CCNC2)sc1C	NO
COc1cc(N2CCN(C)CC2)ccc1Nc1ncc2c(n1)N(C)c1ccccc1C(=O)N2	NO
COc1cc2c(Oc3ccc4[nH]c(C)cc4c3F)ccnc2cc1OCC1(N)CC1	NO
CC(C)NCC(O)c1ccc(N[S+](C)(=O)[O-])cc1 (configuration not stated)	YES
CC[C@]12CC[C@H]3[C@@H](CCC/4=C/C(=O)CC[C@H]34)[C@@H]1\C=C/[C@@]2(O)C#C	YES
COc1ccc(CNC(=O)Nc2ncc([N+](=O)[O-])s2)cc1	NO
C[C@]\12CC[C@H](O)CC1=C/CC3C2CC[C@@]\4(C)C3C\C=C4[N]5C=NC6=C5C=CC=C6 (some centres not stated)	YES
COC1=C(F)C=C\2C(=C1)\N=C/3NNC(=C3\N=C2C4=CC=CC=C4Cl)/C	YES
O=C(/C=C\n1cnc(-c2cc(C(F)(F)F)cc(C(F)(F)F)c2)n1)N1CC(F)(F)C1	YES
CC1=C(OC2=CC3=NC=N[N]3C=C2)C=CC(=C1)NC4=NC=NC5=C4C=C(N\C6=N\C(C)(C)CO6)C=C5	YES
CCOC(=O)[C@@H](N)Cc1ccc(-c2cc(O[C@H](c3ccc(Cl)cc3-n3ccc(C)n3)C(F)(F)F)nc(N)n2)cc1 [Telotristat Etiprate (LX 1606 Hippurate)]	NO
COc1cc(NC(=O)c2ccc(-c3ccc(Cl)cc3)o2)cc(OC)c1	YES
CN(CCOc1ccc(N[S+](C)(=O)[O-])cc1)CCc1ccc(N[S+](C)(=O)[O-])cc1 [Dofetilide]	YES
CC(=O)c1ccc2c(c1)c1cc(C(C)=O)ccc1n2CCNC(C)C	YES
CCCOc1ccn2c(C(C)=O)cc(-c3ccccc3[S+](C)(=O)[O-])c2c1	YES
OC(c1cc(C(F)(F)F)nc2c(C(F)(F)F)cccc12)C1CCCCN1 (configuration not stated)	NO
Cc1cc(Cl)ccc1OCCCC(=O)NO	YES
OC1=CC2=C(C(=C1)O)C(=O)\C=C(/O2)C3=CC(=C(O)C=C3)O	YES
CCCCCC1=CC(=C([C@@H]2\C=C(C)/CC[C@H]2C(C)=C)C(=C1)O)O	NO
Nc1nc2ccc(OC(F)(F)F)cc2s1	YES
CC1Cc2ccccc2N1NC(=O)c1ccc(Cl)c([S+](N)(=O)[O-])c1 (configuration not stated) [Indapamide]	YES
NC(=O)c1ccc(-c2nc(-c3ccc4c(c3)OCCO4)c(-c3ccccn3)[nH]2)cc1	NO
Cc1nnc(C(C)C)n1C1CC2CCC(C1)N2CC[C@H](NC(=O)C1CCC(F)(F)CC1)c1ccccc1 (some centres not stated)	YES
Cc1c(C(=O)NN2CCCCC2)nn(-c2ccc(Cl)cc2Cl)c1-c1ccc(Cl)cc1	NO
C/C=C/C(=O)N(CC)c1ccccc1C	YES
O=C(O)c1ccc(O)c2ncc(N3CCOCC3)cc12	YES

----------
tested on: HCT116; experiment: AC50 cell viability (CellTiter-Glo); higher = less potent; conditions: 48 h
Counter-ions that a name gives are not always drawn.
Consider the following partition of reported AC50 cell viability into named classes: low-valued = under 2 µM, mid-valued = from 2 µM up to 8 µM, high-valued = 8 µM and over

compound	label_class
CC(O)(C#Cc1ccc2c(c1)N(c1nc(N)ncc1Cl)CC2)c1nccs1 (stereo not drawn)	high-valued
O=C(c1ccc(Nc2nc(C3CC3)cn3c(-c4cn[nH]c4)cnc23)c(F)c1)N1CCOCC1 [P21d hydrochloride]	high-valued
NC/1=N/C(=O)C/2=C(/NCC3CN(CN23)C4=CC=C(C=C4)C(=O)N[C@@H](CCC(O)=O)C(O)=O)N1 (stereo partly drawn)	high-valued
C=CCNc1c(O)cc2c(O)c1C[C@@H](C)C[C@H](OC)[C@H](O)[C@@H](C)/C=C(/C)[C@H](OC(N)=O)[C@@H](OC)/C=C\C=C(\C)C(=O)N2 [Retaspimycin Hydrochloride]	low-valued
COc1ccc([S+](=O)([O-])N2CCc3cccc(-c4ccncc4)c32)cc1	low-valued
COc1ccc(CCN(C)CCCOc2ccc([S+](=O)([O-])c3c(C(C)C)c4ccccc4n3C)cc2)cc1OC	high-valued
Cc1cnc(Nc2cccc(CN3CCOCC3)c2)nc1Nc1cccc([S+](=O)([O-])NC(C)(C)C)c1	low-valued
CN(C)C(=O)c1ccc([S+](=O)([O-])c2ccc(NC(=O)[C@@](C)(O)C(F)(F)F)c(Cl)c2)cc1	mid-valued
C[C@@]12O[C@@H](C[C@]1(O)CO)n1c3ccccc3c3c4c(c5c6ccccc6n2c5c31)CNC4=O	low-valued
C=CC(=O)Nc1cc2c(Nc3ccc(F)c(Cl)c3)ncnc2cc1OCCCN1CCOCC1	high-valued
C[S+](=O)([O-])N1CCC(NC(=O)c2[nH]ncc2NC(=O)c2c(Cl)cccc2Cl)CC1	low-valued
NC(=O)[C@H]1CCS[C@@H]2C[C@]3(CCCN3C(=O)Cc3ccc(NC(=O)COc4ccc(Cl)cc4Cl)cc3)C(=O)N12	high-valued
CCC[S+](=O)([O-])c1nc(NC2CC2)cc(-c2ccc3c(ccn3C3CC(C)(C)NC(C)(C)C3)c2)n1	mid-valued
CN(C)[S+](=O)([O-])c1ccc2c(c1)C(=Cc1cc3c([nH]1)CCCC3)C(=O)N2	low-valued
O=C(CCNC(=O)c1ccc(OC(F)(F)F)cc1)N[C@@H]1CCCc2ccccc21	low-valued
CCOc1cc2ncc(C#N)c(Nc3ccc(OCc4ccccn4)c(Cl)c3)c2cc1NC(=O)/C=C/CN(C)C	mid-valued
COC(=O)N[C@@H](C)CNc1nccc(-c2cn(C(C)C)nc2-c2cc(Cl)cc(N[S+](C)(=O)[O-])c2F)n1	mid-valued
Nc1ccccc1NC(=O)c1ccc(CNc2nccc(-c3cccnc3)n2)cc1	low-valued
Cc1ccc(-c2nn(C(C)(C)CNC(=O)c3ccncc3)c3ncnc(N)c23)cc1	mid-valued
OC(=O)/C1=C/CCN(CCOC(C2=CC=C(C=C2)C(F)(F)F)C3=CC=C(C=C3)C(F)(F)F)C1	high-valued
Oc1cc(-c2nc(-c3ccccc3)[nH]c2-c2ccncc2)ccc1Cl	mid-valued
C=CCNC1=C2CC(C)CC(OC)C(O)C(C)/C=C(\C)C(OC(N)=O)C(OC)/C=C/C=C(\C)C(=O)NC(=CC1=O)C2=O (stereo not drawn)	low-valued
CNC(=O)c1cc(Oc2ccc(NC(=O)Nc3ccc(Cl)c(C(F)(F)F)c3)cc2)ccn1	high-valued
c1ccc(-c2oc3ncnc(NC[C@@H]4CCCO4)c3c2-c2ccccc2)cc1	high-valued
Clc1ccc(COC(Cn2ccnc2)c2ccc(Cl)cc2Cl)c(Cl)c1 (stereo not drawn) [Miconazole nitrate]	high-valued
OCCC#Cc1nc(-c2ccc(F)cc2)c(-c2ccncc2)n1CCCc1ccccc1	high-valued
N#CCNC(=O)c1ccc(-c2ccnc(Nc3ccc(N4CCOCC4)cc3)n2)cc1	mid-valued
C[C@@H]1O[C@@H](O[C@H]2C[C@@H](O)[C@]3(CO)[C@H]4[C@H](O)C[C@]5(C)[C@H](CC[C@]5(O)[C@@H]4CC[C@]3(O)C2)C/6=C/C(=O)OC6)[C@H](O)[C@H](O)[C@H]1O [Strophantine octahydrate]	low-valued

----------
tested on: HCT116; experiment: AC50 cell viability (CellTiter-Glo); higher = less potent; settings: 48 h
measurement_name: AC50 cell viability

> print(dat)
                                   compound  endpoint.result
1  CN(C)Cc1ccc([S+](=O)([O-])n2ccc(/C=C/C(=O)NO)c2)cc1 [Resminostat]          2.35 µM
2  COc1cc(O)c2c(c1)C1OC1C[C@H](O)[C@H](O)C(=O)/C=C\C[C@H](C)OC2=O (some centres undefined) [Hypothemycin]          3.72 µM
3  CN1CCN(c2ccc(C(=O)Nc3n[nH]c4ccc(Cc5cc(F)cc(F)c5)cc34)c(NC3CCOCC3)c2)CC1 [Entrectinib]          5.25 µM
4  COc1cc(N2CCC(N)CC2)ccc1Nc1ncc(Cl)c(-c2c[nH]c3ccccc23)n1 [AZD-3463]           5.9 µM
